Test: qHTS assay to identify small molecule antagonists of the thyroid receptor (TR) signaling pathway - cell viability counter screen (AID 743064); note: nearly all actives have a fitted effect of over 50% in size
Settings: GH3.TRE-Luc viability, CellTiter-Fluor, 24 h; series mostly up to 70.3 µM
Records with an inconclusive call do not appear. Calls of active or inactive are those of the source. Calls come from the whole dose curve; as a rule, active = well fitted cell-killing curve with a large enough effect in the repeat runs; inconclusive = weak or mixed curves, or effect the other way; inactive = no such curve, though single readings can be large or run the other way.
Possible outcomes: true (1) for active, false (0) for inactive

Compound | Group Label
O=C1C(=O)c2cccc3cccc1c23 | false (0)
Oc1ccc(Cl)c(Cl)c1Cl | false (0)
NCC(CC(=O)O)c1ccc(Cl)cc1 (centres undefined) | false (0)
ClC=C(Cl)Cl | false (0)
Cc1ccc(N)cc1C | false (0)
c1cc2ccc3cccc4ccc(c1)c2c34 | false (0)
COCCOCCO | true (1)
N#Cc1ccc(Cl)cc1 | false (0)
C=CC(C)=O | false (0)
